# System: COG-LL-319h;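 note: ALL cell lines in 384-well plates, five doses spanning 10,000-fold, each plate scaled between vehicle and 100 µmol/L benzalkonium chloride controls, sDSS an adapted area-under-curve metric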
# test protocol: selective drug sensitivity score (sDSS, relative to normal bone marrow) (sDSS (score)); higher = more potent and effective on the cell line relative to normal bone marrow cells
# experimental context: 72 h
measurement type: selective drug sensitivity score
Keep the answer to the number alone.

Known selective drug sensitivity score results, listed for orientation:
CC(C)(C#N)c1cc(Cn2cncn2)cc(C(C)(C)C#N)c1 [Anastrozole] (top concentration 10000 nM) ... 0
CCC(C)(C)C(=O)O[C@H]1C[C@@H](C)C=C2C=C[C@H](C)[C@H](CC[C@@H]3C[C@@H](O)CC(=O)O3)[C@H]21 [Simvastatin] (top concentration 10000 nM) ... 0.68
Nc1ncn([C@H]2C[C@H](O)[C@@H](CO)O2)c(=O)n1 [Decitabine] (top concentration 10000 nM) ... 10.7

Observed selective drug sensitivity score on COG-LL-319h for Nc1nc(Cl)nc2c1ncn2[C@@H]1O[C@H](CO)[C@@H](O)[C@@H]1F [Clofarabine] (top concentration 10000 nM) , please. 5.6

Observed selective drug sensitivity score on COG-LL-319h for Cc1ccc(C(=O)Nc2cccc(C(F)(F)F)c2)cc1Nc1nc(-c2cccnc2)nc2c1cnn2C [NVP-BHG712] (top concentration 10000 nM) , please. 3.68

Observed selective drug sensitivity score on COG-LL-319h for CC1(C)NC(=O)N(c2ccc([N+](=O)[O-])c(C(F)(F)F)c2)C1=O [Nilutamide] (top concentration 10000 nM) , please. -0.48

Observed selective drug sensitivity score on COG-LL-319h for N[C@@H]1CCCN(c2c(/C=C3\SC(=O)NC3=O)cccc2-c2ccccc2)C1 [AZD1208] (top concentration 10000 nM) , please. -4.4

Observed selective drug sensitivity score on COG-LL-319h for C=C1C[C@@H]2CC[C@@]34C[C@H]5O[C@H]6[C@@H](O3)[C@H]3O[C@H](CC[C@@H]3O[C@H]6[C@H]5O4)CC(=O)C[C@@H]3[C@@H](OC)[C@@H](C[C@H](O)CN)O[C@H]3C[C@H]3O[C@@H](CC[C@@H]1O2)C[C@@H](C)C3=C [Eribulin] (top concentration 1000 nM) , please. 14.8

Observed selective drug sensitivity score on COG-LL-319h for COc1cc2c(Oc3ccc(NC(=O)C4(C(=O)Nc5ccc(F)cc5)CC4)cc3F)ccnc2cc1OCCCN1CCOCC1 [Foretinib] (top concentration 1000 nM) , please. 3.44

Observed selective drug sensitivity score on COG-LL-319h for COc1cccc(OCCCN)c1-c1cc(Nc2cnc(C#N)cn2)n[nH]1 [Prexasertib] (top concentration 10000 nM) , please. 19.4

Observed selective drug sensitivity score on COG-LL-319h for Cn1cnc2c(F)c(Nc3ccc(Br)cc3F)c(C(=O)NOCCO)cc21 [Binimetinib] (top concentration 1000 nM) , please. 2.98
